# reported PBM binding z-score; entries follow
Test system: PPARa:RXRa (NR concentration 270 nM, RXRa partner concentration 90 nM)
Assay Explanation: PBM binding z-score (relative to random genomic background probes); higher = stronger binding; sequences stand for … in GC…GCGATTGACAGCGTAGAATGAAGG
Give your answer as a number; write no unit.

Completed entries (count: 3):
Sequence Content	Target Or Test System	PBM binding z-score
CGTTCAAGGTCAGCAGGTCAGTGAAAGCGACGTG	PPARa:RXRa (NR concentration 270 nM, RXRa partner concentration 90 nM)	5.37
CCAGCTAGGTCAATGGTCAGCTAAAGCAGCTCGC	PPARa:RXRa (NR concentration 270 nM, RXRa partner concentration 90 nM)	3.2
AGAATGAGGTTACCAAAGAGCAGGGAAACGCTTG	PPARa:RXRa (NR concentration 270 nM, RXRa partner concentration 90 nM)	3.05

Inquiry: I am curious: what PBM binding z-score value has been reported for "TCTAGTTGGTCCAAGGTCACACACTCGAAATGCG" ?
Reply text: 4.18

FYI, the data here is from the supplement of paper PMC6555819.
